Provenance of the data: the supplement of paper PMC12042874

assay: amyloid nucleation score (Sup35N fusion, yeast selection) (log enrichment); library NNK2; higher = more nucleation; inactive = no reads after selection;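 note: zero at mode of non-aggregating sequences after 7 days selection at 30°C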
So I've got a bunch of substances here, and I need their amyloid nucleation score values.
Answer with a number only.

I would be grateful if you could share the reported amyloid nucleation score for WGRLGARCYRRILVPGRCLE .
-0.756

Fill in the blank: the reported amyloid nucleation score of LYQSYHELSFVTVHRSSKVD is ____.
2.45

Given the substance VMPIFNYWV , what is its reported amyloid nucleation score?
0.121

I have this substance here, YMRMIYCMFRGNCWVVIVEA , and I need its recorded amyloid nucleation score.
0.216

amyloid nucleation score for IVQLWIWGVVPPFSDISHAL ?
7.87
